# Tested Target: T1, human GFRα2 expressed with a C-terminal human Fc tag and a hexahistidine tag (human, UniProt O00451 22-441, limits assumed)
# T1 construct: bought protein; also called hGFRα2-hFc-6His; hGFRα2-hFc-6his
# T1 sequence (looked up): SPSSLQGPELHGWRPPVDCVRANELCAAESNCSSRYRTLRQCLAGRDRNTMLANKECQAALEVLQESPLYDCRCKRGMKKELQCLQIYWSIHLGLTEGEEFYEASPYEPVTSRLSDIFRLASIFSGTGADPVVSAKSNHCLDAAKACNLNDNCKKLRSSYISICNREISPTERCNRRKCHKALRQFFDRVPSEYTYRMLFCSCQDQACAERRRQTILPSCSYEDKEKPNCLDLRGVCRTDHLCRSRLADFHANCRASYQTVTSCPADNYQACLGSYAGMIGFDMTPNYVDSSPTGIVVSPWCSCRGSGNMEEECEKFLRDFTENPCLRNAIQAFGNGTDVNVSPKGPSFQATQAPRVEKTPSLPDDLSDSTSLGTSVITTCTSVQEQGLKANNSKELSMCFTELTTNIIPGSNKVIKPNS
# Run Description: BLI Octet, antigen on anti-hFc tips, 100 ug/mL Ab
# Experimental: The ability of anti-GFRα3 antibodies to bind to GDNF-family receptors was assessed using an Octet Red biosensor (Fortebio, Inc.). […] The binding response (measured in units of nm) at each step of the experiment was monitored and recorded.
Observable: Bound (nm)

• H4H2294S (antibody, human IgG4, V domains shown, human IgG4 Fc (H4H)) VH: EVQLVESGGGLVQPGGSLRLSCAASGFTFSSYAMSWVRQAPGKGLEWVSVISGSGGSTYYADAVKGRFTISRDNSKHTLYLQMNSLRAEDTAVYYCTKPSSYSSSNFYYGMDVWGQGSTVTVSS VL: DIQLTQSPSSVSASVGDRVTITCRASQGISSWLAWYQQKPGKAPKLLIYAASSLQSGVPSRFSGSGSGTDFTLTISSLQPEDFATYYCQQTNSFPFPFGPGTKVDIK = 0.06
• H4H2292S (antibody, human IgG4, V domains shown, human IgG4 Fc (H4H)) VH: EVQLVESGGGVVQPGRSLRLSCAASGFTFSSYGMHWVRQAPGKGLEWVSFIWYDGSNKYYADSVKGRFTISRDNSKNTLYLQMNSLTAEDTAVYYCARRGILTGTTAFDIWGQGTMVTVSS VL: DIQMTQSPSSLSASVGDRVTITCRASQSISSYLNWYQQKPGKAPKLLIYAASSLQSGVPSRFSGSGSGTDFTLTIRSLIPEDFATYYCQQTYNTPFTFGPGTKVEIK = 0.05

Ref: patent US20140056903A1
